# studySystem: Peroxisome proliferator-activated receptor gamma (Homo sapiens)
# protocolDetails: NVS_NR_hPPARg: NovaScreen (NVS) Nuclear Receptor Binding Assay for human Peroxisome Proliferator-activated Receptor gamma (PPARg) (AID 2283370)
Records with an inconclusive call do not appear. Active and inactive are the calls of the source. How the source made its calls: active means hit-call score of the fitted dose curve at least 0.9, where 1 is the maximum; inconclusive means response in the unintended direction; inactive means score below 0.9.
Your reply should match one of these outcome classes. active, inactive

Solved entries (count: 3):
### Prompt Hi, sorry to bother you, what did the test record for Cc1ncc([C@@H](CCCCCCc2ccc3c(n2)NCCC3)CC(=O)O)cn1 ?
### Response inactive

### Prompt Query: recorded result category for CCCCCCCCCCCCCCCCOS(=O)(=O)O in this test
### Response active

### Prompt Which outcome was entered for the compound COc1cc(C(C)C)c2c(c1)S(=O)(=O)N(COc1cc(=O)n3cccc(OCCN4CCCCC4)c3n1)C2=O in this test?
### Response active

Further cases:
### Prompt What outcome does the record of this test show for Cc1cccc(O)c1C ?
### Response inactive

### Prompt Could you please tell me the result logged for CCn1nc(C)c2c1C(=O)NCC(c1ccc(O)cc1)=N2 in this assay?
### Response inactive

====

# Read-out: Cytochrome P450 7A1 (Homo sapiens)
# protocolDetails: LTEA_HepaRG_CYP7A1: Life Technologies and Expression Analysis (LTEA) Assay for Cytochrome P450 7A1 (CYP7A1) using HepaRG (AID 2283496)
# appliedConditions: mRNA level, 48 h; actives raise or lower the signal
Calls of active or inactive are those of the source. Rule for the calls: active = hit-call score of the fitted dose curve at least 0.9, where 1 is the maximum; inactive = score below 0.9.
metric: AC50

Solved entries:
### Prompt Supply reported AC50 belonging to this compound: CCCCC(CC)C(=O)OCCOCCOCCOC(=O)C(CC)CCCC (configuration not stated)
### Response inactive

### Prompt Report measured AC50; entry is CCCOc1ccc(S(=O)(=O)N2CCN(CC)CC2)cc1-c1nc2c(CC)n(Cc3ccccn3)nc2c(=O)[nH]1
### Response 4.07 µM (active)

### Prompt # return recorded AC50 for entry CCCC(CCC)C(=O)O
### Response inactive

### Prompt Give the measured AC50 for COS(C)(=O)=O
### Response inactive

### Prompt Item Cn1c(=O)c2[nH]cnc2n(C)c1=O : provide AC50
### Response inactive

Others:
### Prompt Find the measured AC50 of C=CCc1cc(S(=O)(=O)c2ccc(O)c(CC=C)c2)ccc1O and report it.
### Response 83.1 µM (active)

### Prompt Complete the entry with AC50 for NNC(=O)c1ccncc1
### Response inactive

### Prompt In one line, give reported AC50 of the entry NC(=O)N(O)[C@@H]1COc2cc(OCc3ccccc3)ccc21 .
### Response inactive

### Prompt Please look at this compound and report its AC50: CC(C)CCCCCCOC(=O)C1CCCCC1C(=O)OCCCCCCC(C)C (configuration not stated)
### Response inactive

====

# Read-out: UDP glucuronosyltransferase (UGT1A1), UGT1A1 (gene 54658)
# protocolDetails: LTEA_HepaRG_UGT1A1: Life Technologies and Expression Analysis (LTEA) Assay for UDP glucuronosyltransferase (UGT1A1) using HepaRG (AID 2283538)
# appliedConditions: mRNA level, 48 h; actives raise or lower the signal
The source made the active and inactive calls. Rule for the calls: active = hit-call score of the fitted dose curve at least 0.9, where 1 is the maximum; inactive = score below 0.9.
Pick one: 1 = active, 0 = inactive

Record excerpt, results attached:
### Prompt Assay outcome for COc1cc2c(c(OC)c1OC)-c1ccc(OC)c(=O)cc1[C@@H](NC(C)=O)CC2 : what was it?
### Response 1

### Prompt Please indicate how the test categorized Cc1nccn1-c1ccc(Sc2cccc(C3(C(N)=O)CCOCC3)c2)cc1 .
### Response 1

### Prompt Dear colleague, could you share the recorded outcome for OCCOCCOCCO when you have a moment?
### Response 0

### Prompt # fetch the recorded call for O=S(=O)(O)c1ccc(N=Nc2c(O)ccc3cc(S(=O)(=O)O)ccc23)cc1 here
### Response 0

### Prompt Recorded test call requested for O=S1(=O)CCCO1
### Response 0

### Prompt Give the logged outcome of this assay for the following compound: C[C@@H](Oc1ccc(CNC(=O)c2cccnc2Oc2ccc3c(c2)OCO3)c(F)c1)C(=O)O
### Response 0

---
### Prompt Outcome? CCCCCCCCN(C)C
### Response 0

### Prompt Per the assay record, what outcome was assigned to CCCOc1ccc(S(=O)(=O)N2CCN(CC)CC2)cc1-c1nc2c(CC)n(Cc3ccccn3)nc2c(=O)[nH]1 ?
### Response 1

### Prompt Please share the test call associated with CCCCC(CC)C(=O)OCCOCCOCCOC(=O)C(CC)CCCC (configuration not stated) .
### Response 0

### Prompt What did this assay record as the result for C[C@]12C=CC(=O)C=C1CC[C@H]1[C@@H]3C[C@@H](O)[C@](O)(C(=O)CO)[C@@]3(C)C[C@H](O)[C@@]12F ?
### Response 0

### Prompt Hi, sorry to bother you, what did the test record for CC(C)c1nnc2ccc(-c3ocnc3-c3cc(F)ccc3F)cn12 ?
### Response 1

### Prompt Outcome logged for CC(=O)c1ccccc1 in this assay:
### Response 0

### Prompt Name the outcome recorded for Cn1c(=O)c2[nH]cnc2n(C)c1=O in the assay.
### Response 0
